Tested on: Nucleic Acid
assay: Concentration required for 50% displacement of ethidium bromide from p[dA]p[dT] in a fluorescence intercalator displacement (FID) assay
Type: nucleic-acid assay
experimental readout: C50

# smiles input, experimental readout, recorded value
rows = [
    ("Cn1cc(NC(=O)c2cc(NC(=O)c3cc(NC=O)cn3C)cn2C)cc1C(=O)NCCC(=N)N", "C50", "0.46 µM"),
    ("N=C(N)CCNC(=O)[C@@H]1C[C@@H](NC(=O)[C@@H]2C[C@@H](NC(=O)[C@@H]3C[C@@H](NC=O)CN3)CN2)CN1", "C50", "8.55 µM"),
    ("N=C(N)CCNC(=O)[C@H]1C[C@H](NC(=O)[C@H]2C[C@H](NC(=O)[C@H]3C[C@H](NC=O)CO3)CO2)CO1", "C50", "5.4 µM"),
]

----------
System: Nucleic Acid
assay: Concentration required for 50% displacement of ethidium bromide from p[dA]p[dT] in a fluorescence intercalator displacement (FID) assay
Assay type: nucleic-acid assay

# compound, unit symbol, C50
data = [
    ("N=C(N)CCNC(=O)[C@H]1C[C@H](NC(=O)[C@H]2C[C@H](NC(=O)C3C[C@H](NC=O)CN3C(=O)OCc3ccccc3)CN2C(=O)OCc2ccccc2)CN1C(=O)OCc1ccccc1 (stereo partly specified)", "µM", 4.7),
    ("N=C(N)CCNC(=O)[C@@H]1CC[C@@H](NC(=O)[C@@H]2CC[C@@H](NC(=O)[C@@H]3CC[C@@H](NC=O)C3)C2)C1", "µM", 7.91),
    ("N=C(N)CCNC(=O)[C@@H]1C[C@@H](NC(=O)[C@@H]2C[C@@H](NC(=O)[C@@H]3C[C@@H](NC=O)CN3C(=O)OCc3ccccc3)CN2C(=O)OCc2ccccc2)CN1C(=O)OCc1ccccc1", "µM", 5.1),
    ("N=C(N)CCNC(=O)[C@@H]1C[C@@H](NC(=O)[C@@H]2C[C@@H](NC(=O)[C@@H]3C[C@@H](NC=O)CO3)CO2)CO1", "µM", 5.5),
    ("N=C(N)CCNC(=O)[C@H]1C[C@H](NC(=O)[C@H]2C[C@H](NC(=O)[C@H]3C[C@H](NC=O)CN3)CN2)CN1", "µM", 6.37),
    ("CN1C[C@@H](NC(=O)[C@H]2C[C@H](NC(=O)[C@H]3C[C@H](NC=O)CN3C)CN2C)C[C@@H]1C(=O)NCCC(=N)N", "µM", 6.7),
]
